# ASSAYED TARGET: T1, ZIKV (prM80E) with a C-terminal myc-myc-hexahistidine tag (Zika virus, UniProt A0A024B7W1 104-694)
# T1 construct: also called ZIKV (prM80E)-mmH; ZIKV-mmH
# ASSAY: SPR, mAb captured, 37C
MEASURE: t½ pH 7.4/t½ pH 6.0

binder="H4H25703N (antibody, V domains shown) VH: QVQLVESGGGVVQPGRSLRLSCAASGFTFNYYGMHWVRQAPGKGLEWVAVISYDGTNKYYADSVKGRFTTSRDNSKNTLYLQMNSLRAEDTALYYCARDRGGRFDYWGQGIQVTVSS VL: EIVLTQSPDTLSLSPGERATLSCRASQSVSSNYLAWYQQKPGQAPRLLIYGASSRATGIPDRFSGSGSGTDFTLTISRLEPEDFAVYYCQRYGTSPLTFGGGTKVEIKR" measure="t½ pH 7.4/t½ pH 6.0" measured=1.3
binder="H4H25598P (antibody, V domains shown) VH: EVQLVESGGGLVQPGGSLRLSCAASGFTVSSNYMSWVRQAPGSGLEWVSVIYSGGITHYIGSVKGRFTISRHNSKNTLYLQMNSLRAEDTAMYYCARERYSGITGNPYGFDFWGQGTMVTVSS VL: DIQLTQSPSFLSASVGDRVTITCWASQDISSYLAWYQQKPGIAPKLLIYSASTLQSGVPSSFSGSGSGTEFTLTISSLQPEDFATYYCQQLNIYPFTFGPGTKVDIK" measure="t½ pH 7.4/t½ pH 6.0" measured=32.4
binder="H4H25619P (antibody, V domains shown) VH: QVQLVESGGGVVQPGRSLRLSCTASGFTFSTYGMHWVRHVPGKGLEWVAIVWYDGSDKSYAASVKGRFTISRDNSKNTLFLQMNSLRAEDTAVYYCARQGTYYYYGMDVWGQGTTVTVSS VL: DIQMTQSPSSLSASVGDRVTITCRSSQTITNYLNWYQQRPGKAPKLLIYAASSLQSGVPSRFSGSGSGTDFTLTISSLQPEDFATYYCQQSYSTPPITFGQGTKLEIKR" measure="t½ pH 7.4/t½ pH 6.0" measured=0.5
